Exercise: for every item that follows, state its recorded pIC50.
target: V1 receptor (Rattus norvegicus, UniProt P30560); test: biochemical; assay type: binding
Sequence (P30560 whole entry): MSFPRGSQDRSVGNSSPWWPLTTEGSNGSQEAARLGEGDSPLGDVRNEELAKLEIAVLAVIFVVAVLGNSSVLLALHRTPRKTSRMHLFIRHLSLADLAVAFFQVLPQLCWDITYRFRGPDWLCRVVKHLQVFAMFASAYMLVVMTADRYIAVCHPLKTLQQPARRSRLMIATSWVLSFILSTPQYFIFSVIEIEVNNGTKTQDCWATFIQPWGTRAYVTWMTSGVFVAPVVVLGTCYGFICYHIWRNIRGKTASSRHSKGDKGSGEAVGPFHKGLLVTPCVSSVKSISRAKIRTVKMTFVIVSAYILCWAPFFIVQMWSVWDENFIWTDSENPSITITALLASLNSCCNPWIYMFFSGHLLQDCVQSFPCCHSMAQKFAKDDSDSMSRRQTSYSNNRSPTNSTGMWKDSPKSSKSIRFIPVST
Answers are plain numbers, as −log10 of the molar value.

1) C[Si](C)(C)c1ccc(C(=O)N2CCC(N3C(=O)CCc4ccccc43)CC2)cc1 [Example 110] ... 5.89

I would be grateful if you could provide pIC50 for each of the following entries.
1. O=C(c1ccc(OCCCNS(=O)(=O)c2ccccc2)cc1)N1CCC(N2C(=O)CCc3ccccc32)CC1 [Example 169]
2. O=C(CCCCCOc1ccc(C(=O)N2CCC(N3C(=O)CCc4ccccc43)CC2)cc1)N1CCNCC1 [Example 270]

1. 6.77
2. 7.36

* * *

Exercise: for every item that follows, state its recorded IC50.
biological target: V1 receptor (Rattus norvegicus, UniProt P30560); assay: biochemical; assay type: binding
Numbers only, in µM.

Known IC50 results, listed for orientation:
1) O=C(CN1CCN(c2ccccc2)CC1)NCCCCCOc1ccc(C(=O)N2CCC(N3C(=O)CCc4ccccc43)CC2)cc1 ... 0.38
2) CC(=O)N1CCN(C(=O)CCCCCOc2ccc(C(=O)N3CCC(N4C(=O)CCc5ccccc54)CC3)cc2)CC1 ... 0.042
3) NC(=O)CNC(=O)CCCCOc1ccc(C(=O)N2CCC(N3C(=O)CCc4ccccc43)CC2)cc1 ... 0.24
4) O=C(c1ccc(OCCCCCCN2CCCCC2)cc1)N1CCC(N2C(=O)CCc3ccccc32)CC1 ... 0.039
5) O=C(c1ccc(OCCCCCSc2ccncc2)cc1)N1CCC(N2C(=O)CCc3ccccc32)CC1 ... 0.61

I would be grateful if you could provide IC50 for each of the following entries.
1. CC(=O)OCCCCCOc1ccc(C(=O)N2CCC(N3C(=O)CCc4ccccc43)CC2)cc1
2. O=C(O)C1CCN(C(=O)CCCCCOc2ccc(C(=O)N3CCC(N4C(=O)CCc5ccccc54)CC3)cc2)CC1
3. CNc1ccc(C(=O)NCCCCOc2ccc(C(=O)N3CCC(N4C(=O)CCc5ccccc54)CC3)cc2)cc1
4. CC[S+]([O-])CCCOc1ccc(C(=O)N2CCC(N3C(=O)CCc4ccccc43)CC2)cc1 (stereo not shown)

0.15
0.49
0.36
0.61

Fill in the blank: the reported IC50 of `CCOC(=O)NCCCOc1ccc(C(=O)N2CCC(N3C(=O)CCc4ccccc43)CC2)cc1` is ____.
0.19

* * *

molecular target: UniProt P30560; test: biochemical; type: binding
# strict inequality: IC50 < 100 nM yields Met, everything else yields Not met

1. CC(=O)NCC(CCCCOc1ccc(C(=O)N2CCC(N3C(=O)CCc4ccccc43)CC2)cc1)OC(C)=O (stereo not drawn) ... Not met
2. O=C(CN1CCCC1)NCCCCCOc1ccc(C(=O)N2CCC(N3C(=O)CCc4ccccc43)CC2)cc1 ... Met
3. CC(=O)Nc1ccc(C(=O)NCCCCCOc2ccc(C(=O)N3CCC(N4C(=O)CCc5ccccc54)CC3)cc2)cc1 ... Not met

Now take the following compound into account.
IC50 under 100 nM? Item: `NC(=O)[C@H](Cc1ccc(O)cc1)NC(=O)CCCCCOc1ccc(C(=O)N2CCC(N3C(=O)CCc4ccccc43)CC2)cc1`
Met
